Reported pIC50, UniProtKB O60341.
# reply with the number alone; pIC50 is -log10 of concentration in mol/L

Worked examples, 3 compounds total:
compound: Nc1ccccc1NC(=O)c1ccc(CNC2CC2c2ccccc2)cc1 (centres undefined)
pIC50: 5.15
--
compound: Nc1ccccc1NC(=O)/C=C/c1ccc(CNC2CC2c2ccccc2)cc1 (centres undefined)
pIC50: 5.41
--
compound: O=C(NO)c1ccc(CNC2CC2c2ccccc2)cc1 (centres undefined)
pIC50: 5.39

Proceed to the following item.
Q. # get_value(readout= pIC50, system= UniProtKB O60341) for O=C(CCCCCCNC(=O)c1ccc(CNC2(c3ccccc3)CC2)cc1)NO
A. 5.92

----------
- target: Histone deacetylase 5 (Homo sapiens, UniProt Q9UQL6)
- Sequence (Q9UQL6 whole entry, the tested form may be a part): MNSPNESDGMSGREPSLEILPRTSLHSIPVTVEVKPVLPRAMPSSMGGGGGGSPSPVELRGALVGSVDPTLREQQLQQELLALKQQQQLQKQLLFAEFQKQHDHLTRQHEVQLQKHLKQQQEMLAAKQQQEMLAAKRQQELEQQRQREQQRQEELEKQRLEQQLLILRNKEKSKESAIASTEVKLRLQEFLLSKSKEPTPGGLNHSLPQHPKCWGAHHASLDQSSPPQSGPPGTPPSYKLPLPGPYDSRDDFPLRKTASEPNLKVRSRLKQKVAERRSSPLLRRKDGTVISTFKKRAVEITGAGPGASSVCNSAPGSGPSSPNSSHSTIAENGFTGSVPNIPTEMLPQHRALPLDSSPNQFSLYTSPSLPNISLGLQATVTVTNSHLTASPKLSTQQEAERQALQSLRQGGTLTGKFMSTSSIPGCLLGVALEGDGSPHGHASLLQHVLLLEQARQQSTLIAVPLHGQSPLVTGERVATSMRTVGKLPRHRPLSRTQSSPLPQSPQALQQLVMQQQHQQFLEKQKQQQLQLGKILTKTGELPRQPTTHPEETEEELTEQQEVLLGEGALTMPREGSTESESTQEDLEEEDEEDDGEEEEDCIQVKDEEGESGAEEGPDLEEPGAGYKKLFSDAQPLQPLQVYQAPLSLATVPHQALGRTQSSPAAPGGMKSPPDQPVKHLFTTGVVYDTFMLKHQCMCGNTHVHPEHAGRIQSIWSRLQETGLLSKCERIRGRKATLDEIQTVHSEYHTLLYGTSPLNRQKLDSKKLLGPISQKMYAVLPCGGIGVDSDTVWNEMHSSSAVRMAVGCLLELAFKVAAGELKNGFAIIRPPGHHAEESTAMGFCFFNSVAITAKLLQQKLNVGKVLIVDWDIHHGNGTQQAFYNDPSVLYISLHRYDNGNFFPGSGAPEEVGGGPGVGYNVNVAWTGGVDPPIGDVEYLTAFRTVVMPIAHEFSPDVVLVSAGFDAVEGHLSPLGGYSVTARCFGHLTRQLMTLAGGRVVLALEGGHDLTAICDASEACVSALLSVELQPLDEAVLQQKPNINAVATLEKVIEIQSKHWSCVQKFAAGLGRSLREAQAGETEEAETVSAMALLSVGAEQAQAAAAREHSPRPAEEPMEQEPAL
- protocolDetails: Inhibition of C-terminal His-tagged human HDAC5 (656-1122 residues) expressed in baculovirus expression system using Ac-peptide substrate incubated for 15 mins by fluorescence based assay
- reportedConditions: read-out: IC50
propertyMeasured: pIC50
# pIC50 is unitless: minus log10 of the molar concentration; print number only

compound: O=C(CCCCCCNC(=O)c1ccc(CNC2(c3ccccc3)CC2)cc1)NO
pIC50: 4.77

Turning now to a further record.
Q. Fill in the recorded pIC50 for this compound, with Histone deacetylase 5 (Homo sapiens, UniProt Q9UQL6) as test system: O=C(/C=C/c1ccc(CNC2CC2c2ccccc2)cc1)NO (configuration not stated)
A. 5.53
